Molecular target: furin, P09958;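 also: purified furin at 1:10 enzyme:substrate in 50 mM HEPES pH 7.5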
Sequence (P09958 whole entry): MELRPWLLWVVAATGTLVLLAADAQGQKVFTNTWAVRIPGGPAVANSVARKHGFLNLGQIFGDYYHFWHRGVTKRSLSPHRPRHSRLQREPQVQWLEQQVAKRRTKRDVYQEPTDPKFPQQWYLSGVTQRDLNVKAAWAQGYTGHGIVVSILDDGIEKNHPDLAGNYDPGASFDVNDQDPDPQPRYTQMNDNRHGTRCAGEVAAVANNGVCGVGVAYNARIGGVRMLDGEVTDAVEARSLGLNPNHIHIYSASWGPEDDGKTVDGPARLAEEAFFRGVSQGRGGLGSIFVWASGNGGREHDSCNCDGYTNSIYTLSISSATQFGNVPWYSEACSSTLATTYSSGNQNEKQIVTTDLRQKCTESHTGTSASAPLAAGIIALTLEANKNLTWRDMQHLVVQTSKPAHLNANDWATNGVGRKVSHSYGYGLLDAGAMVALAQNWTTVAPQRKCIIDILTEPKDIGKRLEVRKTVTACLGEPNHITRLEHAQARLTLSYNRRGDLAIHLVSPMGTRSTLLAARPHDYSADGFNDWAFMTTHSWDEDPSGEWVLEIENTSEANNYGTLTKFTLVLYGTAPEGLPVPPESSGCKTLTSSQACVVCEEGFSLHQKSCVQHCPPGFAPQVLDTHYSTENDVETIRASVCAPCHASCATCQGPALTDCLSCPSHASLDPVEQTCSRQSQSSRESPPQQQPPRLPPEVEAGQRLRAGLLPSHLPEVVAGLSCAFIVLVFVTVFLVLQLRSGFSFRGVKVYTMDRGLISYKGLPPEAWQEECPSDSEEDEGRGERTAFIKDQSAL
Experiment: furin cleavage Z-score vs untreated control; higher = more cleavage, active = 3.5 or more, inactive = 1 or less, 8 variable residues between constant flanks
Settings: 30 min
The list shows a part of the results. The hit rate among all sequences tested is not known here.
readout-label: furin cleavage Z-score
A bare number is all that is needed in reply.

(Q) Look up furin cleavage Z-score: CAISLRFKRTAGNASASA [FS-172]
(A) 6.83

***
(Q) What furin cleavage Z-score value was documented for this sequence, CAMNSTGFTKAGNASASA [HC438] ?
(A) 0.353

(Q) Let us now turn to CASPGRSARPAGNASASA [FS-93]
(A) -1.31

(Q) What would you report for CAEEQKLPINAGNASASA [HC1379] ?
(A) -0.462

Data provenance: the supplement of paper PMC3545927
